Origin of values: the supplement of paper PMC6555819

System: RXRa homodimer (NR concentration 180 nM)
ASSAY NOTES: PBM binding z-score (relative to random genomic background probes); higher = stronger binding; sequences stand for … in GC…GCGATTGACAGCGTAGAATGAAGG

# ENTRY SEQUENCE, PBM binding z-score
rows = [
    ("TAGCCTCGGTCATTGGGCCAGTATAGTACGCATC", 0.223),
    ("CGATCTAGGTCACCAGGACAGTGAAGAGGTTGGA", 3.32),
    ("CGAACTAGGTCAGAACAGGACATTGAAGGATGAT", 1.41),
    ("CAAACTAGGTCAAGAGGTCAAAGGCCGCTTCCCG", 7.98),
    ("AGTCAAAGTTCATCTTGGTAACGTAAGATATGCT", 4.52),
    ("ACTAGTTGGTCAGCTGAGGTCACACTCAATTCGG", 3.92),
    ("ATACGTAGGTTAGGGTCATTCAGAAAGTAGGGAA", 5.33),
    ("CGTACTAGGTCACCAGGACAGTGAAGAGGTTGGA", 3.04),
    ("TCGAGTAGGTTACGGGGGCATTCAGGGATGAAGA", 2.77),
    ("CGAACTGGGTCACCAGGACAGTGAAGAGGTTGGA", 3.41),
    ("CCTTACGGGTCAAGGTAATAGCACGGGTGGTACG", 4.79),
    ("CCGACGGGGGCAGAAAGGTTACCATACCATCCGG", 3.31),
]

---

Tested on: FXR:RXRa (NR concentration 270 nM, RXRa partner concentration 90 nM)
ASSAY NOTES: PBM binding z-score (relative to random genomic background probes); higher = stronger binding; sequences stand for … in GC…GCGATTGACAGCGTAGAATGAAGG
Returns TRUE if the recorded PBM binding z-score is greater than or equal to 4, and FALSE otherwise.

# ENTRY SEQUENCE, ASSIGNED CATEGORY
rows = [
    ("TCGAGTAGGTTACGTGGGCATTCAGGGATGAAGA", "FALSE"),
    ("TCGAGTAGATTACGGGGGCATTCAGGGATGAAGA", "FALSE"),
    ("TAGCCTAGGTCATGCGGGTCAGTATAGTGTCGGC", "TRUE"),
    ("CCTTACAGGTCAAGGTTATAGCACGGGTGGTACG", "TRUE"),
    ("ATCGAAAAGTCGAAGGTGAGTATACCCACCCGAA", "FALSE"),
    ("AGTCAAAGTTCATCTGGGTAACGTAAGATATGCT", "TRUE"),
    ("CTAACTAGGTCAAAGGACAGTGAAAGGCGACGTA", "FALSE"),
    ("CGAACTAGTTCAAGGACAGTGAATCTCCGCACGC", "FALSE"),
    ("ATCGAACGGTCGACGAGGTGAGTATACACCGTTT", "FALSE"),
    ("CTTTACGGGTCAAGGTTATAGCACGGGTGGTACG", "TRUE"),
    ("ATCGAAATGTCGTGAGGTGAGTATACAGAAAGGC", "FALSE"),
    ("ACATGTAGGTTAGGGTCATTCAGAAAGTAGGGAA", "TRUE"),
]

---

System: RARg:RXRa (NR concentration 270 nM, RXRa partner concentration 90 nM)
ASSAY NOTES: PBM binding z-score (relative to random genomic background probes); higher = stronger binding; sequences stand for … in GC…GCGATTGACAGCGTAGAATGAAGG
Form field: PBM binding z-score (one value per entry).

# ENTRY SEQUENCE, PBM binding z-score
records = [
    ("TAGCCTAGGCCATGGGCCAGTATACCACGCGAAC", -0.148),
    ("ATCGAAAGGTCGAGTTGAGTATAGAGAAAGGGAA", 4.11),
    ("CGAACTAGGGCAAAGGACAGTGAAAGGCGACGTA", 1.1),
    ("AGTCAAAGTTCAGGACGAGGTAAAGTAAAGCACG", 4.76),
    ("TAGCCTAGGTCATTCAGGGGCCAGTATGGAAAGC", 6.2),
    ("ACTCGGAGGACAAAGGTCAGAACTACGCCAGTGA", 5.75),
    ("CCGAGTAGGTTACGACGGGGCATTCAGTGCGAAT", 0.882),
    ("CCGAGTAGGTTACGAGGGGGCGTTCAGTGCGAAT", 2.52),
    ("ACTTACGGGTCAACGAAGTTATAGCACGCGTATA", 5.31),
    ("AGAGTGAGGTTACCAAAGATCAGGGAAACGCTTG", 2.25),
    ("CCTGCTAGGTCTATGGTCAGCTAAAGCAGCTCGC", -0.335),
    ("CCTACTGGGCCGAGGTCATTGATCAGTCAAAGCA", 4.27),
]

---

Tested on: PPARg DBDmut IVT, anti-PPARg (DBD mutation: PPARg1 K132A/R137A, NR concentration 270 nM)
ASSAY NOTES: PBM binding z-score (relative to random genomic background probes); higher = stronger binding; sequences stand for … in GC…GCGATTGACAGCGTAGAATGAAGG

# ENTRY SEQUENCE, PBM binding z-score
rows = [
    ("CGAACTAGGCCACCAGGACAGTGAAGAGGTTGGA", -0.0856),
    ("TTACCAAGGTGAACTGAGGTCGTTGATCCAACTC", 0.996),
    ("AGTCGGAGGACAAAGGTCAGAGCTACGCCAGTGA", -0.0334),
    ("GATACGGGGTCAGCTAGAGGCCAGAGTATGGAAA", 0.481),
    ("ATCGAAAGGTCGTGAGGTGACTATACAGAAAGGC", 1.47),
    ("GCTGCTAGGTCAACTGATGGTCAGCTAAAGCTCG", -1.12),
    ("CGAACTAGGTCACCAGGACAGTGCAGAGGTTGGA", 0.713),
    ("CACACTAGGTCAAGAGGTCAAAGTCCGCTTCCCG", 1.84),
    ("ACTAGTTGGTCAGCTGAGGTAACACACAATTCGG", 0.609),
    ("TCATATAGGTAAAAGGTCAAAGTCGGTGTGGTAA", 3),
    ("CGTCCAAGGTCAGATAGGTCAGTGAATGCCGAGT", 0.165),
    ("AGAATGGGGTTAAGATCAGGGAAACAGAATACAT", 1.97),
    ("CGAACTAGGTCACCAGGACAGTGTAGAGGTTGGA", 1.75),
    ("CAAACTAGGTCACCGTAAGGTCAAAGTCCGCATG", 1.86),
    ("CGTCCAAGGTCACAGGAGGTCAGTGAAGACAGAT", -0.411),
    ("CGTCCAAGGTCAAGCTCAGTGAAAGAGACTCGAA", 0.448),
    ("ATATGTAGGTAACATCCGGGTCATTCAGGCTATG", 1.59),
    ("CGAAGTAGGTCAAAGGACAGTGAAAGGCGACGTA", 4.59),
    ("GCTGCTCGGTCAACTGATGGTCAGCTAAAGCTCG", -0.237),
    ("TCTAGTTGGTCAAAGGTCAAACACTCGAAATGCG", 1.1),
    ("ACTAGTTGGTCAGCTGAGGTCACACAAAATTCGG", 0.409),
    ("CGAACTAGGTCACCAGGACAGTTAAGAGGTTGGA", 5.1),
    ("CGTGCAAGGTCAGAGAGGTCAGTGAATGCCGAGT", -0.338),
    ("CCTAGCCGGCCAATCTGGGTCACTCAAGGCTTGA", -0.666),
    ("CGAACTAAGTCACCAGGACAGTGAAGAGGTTGGA", -0.0362),
    ("GATACAAGGTCAGCTAGAGGCCAGAGTATGGAAA", 0.155),
]

---

Form field: PBM binding z-score (one value per entry).
Tested on: RARg:RXRa (NR concentration 270 nM, RXRa partner concentration 90 nM)
ASSAY NOTES: PBM binding z-score (relative to random genomic background probes); higher = stronger binding; sequences stand for … in GC…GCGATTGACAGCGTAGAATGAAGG

# ENTRY SEQUENCE, PBM binding z-score
data = [
    ("CAATCTAGGTCAAAGGTCAAAGTCGAGCCAACCA", 8.93),
    ("ATATGTAGGTTAGGGTCTTTCAGAAAGTAGGGAA", 0.711),
    ("CCTACAGGGCCAAGGTCATTGATCAGTCAAAGCA", 3.94),
    ("GCTGCTAGGTCAGGTTGGTCTGCTAACGGGTACG", 2.46),
    ("TCGAGTCGGTTACGGGGGCATTCAGGGATGAAGA", 2.4),
    ("ATATGTAGATTAGGGTCATTCAGAAAGTAGGGAA", 3.47),
    ("CCGACTGGGGCAAAGGTTACCATGCTCAGTACGA", 3.66),
    ("CGGACTAGGTCACCAGGACAGTGAAGAGGTTGGA", 4.13),
    ("CGAATTAGGTCAAAGGACAGTGAAAGGCGACGTA", 4.17),
    ("TCGAGTAGGTTACGGGGACATTCAGGGATGAAGA", 1.26),
    ("CTCGAAAGGTCGGTTGAGGTGAGTAAACGGATAA", 2.86),
    ("CAAACTAGGTCAAGGTCAAATTCGGTTTGTGCCA", 6.03),
    ("TCTAGGAGGACACGAAGGTCAGAGCTTTCCAGAG", 3.15),
    ("ATATGTAGCTTAGGGTCATTCAGAAAGTAGGGAA", 3.71),
    ("CGAACTAGTTCAAAGGACAGTGAAAGGCGACGTA", 1.25),
    ("CGAACTTGGTCACCAGGACAGTGAAGAGGTTGGA", 0.959),
    ("TAGCCTAGGTCAGATCGGGCGAGTATACGCTATA", 2.7),
    ("CGAACTAGGTCAAAGGACGGTGAAAGGCGACGTA", 3.97),
    ("ATATGTACGTTAGGGTCATTCAGAAAGTAGGGAA", 3.78),
    ("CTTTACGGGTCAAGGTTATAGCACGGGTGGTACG", 5.18),
    ("CTAGGTAGGTTAAGGGGGTCATTCAGTTTGAAAG", 4.95),
    ("TAGCCTAGGTCATGCGGGCCAGTATAGTGTCGGC", 3.98),
    ("CCGAGTAGGTTACGAGGGGGCAGTCAGTGCGAAT", 2.81),
    ("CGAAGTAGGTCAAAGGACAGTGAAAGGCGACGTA", 4.15),
]
